Provide the recorded cytotoxicity at 70.5 h for the entries that follow.
- procedure summary: Human HepG2 cell viability assay in 384 well format
- Type: toxicity, cell-based
- Design: dose 125 nL, time 70.5 hour; concentration not given beside the values
- experimental setup: HepG2 cells, read-out: Inhibition
Form entry: value (%) — number only.

Query: Fill blank: measured cytotoxicity at 70.5 h of the molecule CC(C)CCN1CCN(Cc2nc(C3CC3)no2)CC1 is ____.
Response: 20.6

Query: Try the molecule Cn1cc(C2CCCN2C(=O)c2ccc(OCC3CC3)nc2)cn1 (configuration not stated)
Response: -4.15

Query: Same read-out for CC(C)c1nn(C)c(N(C)C)c1CNC1CCOc2c(F)cccc21 (configuration not stated) ?
Response: -2

Query: Entry COc1ccc(OC)c(NC(=O)N2CCCC2c2ccco2)c1 (configuration not stated) please
Response: -12.9

Query: Now try Cc1cccc(CNC(=O)c2cccnc2N)c1 .
Response: 18

Query: Record: Cc1ccc(CN2CCOC3(CCCN(C(=O)c4ccco4)C3)C2)s1 (configuration not stated)
Response: -10.7

Query: Note, next up: CC(NC(=O)NCCCn1cccn1)c1cccnc1 (configuration not stated)
Response: 18.1

Query: Do the same for Cc1nc(CN2CCc3ncnc(C4CCOC4)c3CC2)cs1 (configuration not stated) please
Response: 0.032

Query: Continue with CCN(Cc1c(C)nn(CC)c1C)S(=O)(=O)c1cnn(C)c1
Response: -6

Query: Similarly, CC(C)Nc1cccc(CNC(=O)N2CCC(N3CC=CC3)C2)c1 (configuration not stated) ?
Response: 30.6

Query: Also, CCc1nc(CN2CCCN(C(=O)c3cn[nH]c3C)CC2)cs1 please.
Response: -6.19

Query: Moving on to the next molecule: CS(=O)(=O)N1CCCC(C(=O)Nc2cnn(Cc3ccc(Cl)cc3)c2)C1 (configuration not stated)
Response: 0.541

Query: Record: Nc1nc(NCCc2[nH]nc3c2CCCC3)cc(N2CCOCC2)n1
Response: -6.18

Query: Lookup Cc1ccnc(OC[C@@]23CCO[C@@H]2CCN(c2ncccn2)C3)n1
Response: 5.78

Query: Consider next the molecule COCCN1C(=O)CCC12CCN(C(=O)NC(C)C)CC2 in the same way.
Response: -25.3

Query: And the next one, O=C(CCCc1ncc(-c2ccccc2)o1)N1CCN(CCO)CC1 ?
Response: -7.53

Query: Please give the result for Cn1nc(CN2CCCC2)c2c1CN(C(=O)c1cccnc1)CC2 too.
Response: -2.33

Query: Then what about the molecule COc1cc(CN2CCCC(Nc3cccc(F)c3)C2)cc(Cl)c1O (configuration not stated) ?
Response: 6.37

Query: Then what about the molecule COc1ccc(NC(=O)c2cccc(CN3CCCC3C)c2)cc1OC (configuration not stated) ?
Response: -2.34

Query: Same read-out for Cc1cccc2c1C(=O)NC1(CCOCC1)N2 ?
Response: -13.5

Query: Item: OCCN1CCOC2(CCCN(c3ncc(F)cn3)C2)C1 (configuration not stated)
Response: -3.36

Query: Do the same for COC(=O)[C@@H](NC(=O)Nc1ccc(C(C)=O)cc1)C(C)C please
Response: 13.3
